The measured values listed here are drawn from the supplement of paper PMC9732359.

# assay comment: protein stability index of a GFP-peptide fusion (yeast GPS) (PSI 1-4); higher = more stable; sorted into four equal gates, so the index is relative within each strain
# reported conditions: doa10∆
Label label 1 when protein stability index is at or above 3; otherwise label label 0.

# input protein stability index >= 3 for VIGGNSLFHIVVDTEET [SMC3] ?
# output label 0

# input Determine whether this sequence has protein stability index no lower than 3: EKIFHYGHVFLGITGLA [PUP3]
# output label 0

# input Assess whether reported protein stability index for AYIKLLDQTKDTRITHL [SNF2] sits at 3 or higher.
# output label 0

# input // inclusive: protein stability index at least 3? input: LFSLEKPNLNYFKSILL [SWI1]
# output label 0

# input Test whether the sequence LNQINGLNNDFLFQNIN [GRR1] records protein stability index of 3 or higher.
# output label 0

# input hey, is protein stability index for this one >= 3? PSCNNMLLITSGDSGVY [RPC11]
# output label 0

# input Given EEKKKEHEEKEKERETN [RPN2] , state whether its protein stability index is at least 3.
# output label 1

# input Tell me whether protein stability index is at least 3 here: EDNNDAVNSIMALKFVS [ECM29]
# output label 1

# input Assess whether reported protein stability index for FMLRKQDPKTLVALLSR [SSN2] sits at 3 or higher.
# output label 0

# input Is protein stability index for STATRNVTMIDDLIHFT [COR1] at or above 3?
# output label 0

# input Decide: is the reported value of protein stability index for VRSLPKEEQPKQIIVTR [PRP8] equal to or greater than 3?
# output label 0

# input Kindly determine if protein stability index recorded for FLQELLKKVQQQQQAAA [SWI1] is above or exactly 3.
# output label 0

# input Is the recorded value of protein stability index equal to or greater than 3 for this sequence? PNEFMQFKSKEVEKAHP [PRP8]
# output label 1

# input Check if protein stability index >= 3 (inclusive). Item: AALRTVKSLVDNMITGV [RPL9A]
# output label 0

# input protein stability index >= 3 for RNSVKLLSKLLLKHPFK [YCS4] ?
# output label 0

# input API: above_or_equal(metric=protein stability index, cutoff=3) for item IAYSDSQSSNANICLTF [SIN4]
# output label 0

# input Hi team, for SVKPHVVEPEHMADAKI [SIR4] , is the recorded protein stability index at or above 3?
# output label 0

# input # check: protein stability index of DKARRLGYKAKQGFVIY [RPL15A] is greater than or equal to 3
# output label 1

# input # check: protein stability index of MPNIELYLKVIPMDFIR [SSN2] is greater than or equal to 3
# output label 0

# input Say whether QCPVKSAEDQLYAITFR [QCR2] shows protein stability index of 3 or more.
# output label 1

# input Assess whether reported protein stability index for SNIPRGSVIQTHIAESA [MCD1] sits at 3 or higher.
# output label 0

# input // inclusive: protein stability index at least 3? input: SHNFQNAIFQMESEEVP [PCI8]
# output label 0

# input Could you tell me if the measured protein stability index of HTPMVNFESISARSSVH [SRB8] reaches 3 or more?
# output label 0

# input Could you please find out whether WSTTGDNGELDLSGFNI [MED2] has protein stability index that meets 3 or exceeds it?
# output label 1

# input I'd appreciate it if you could say whether ETIQADLNHVTEELQTQ [SMC2] has protein stability index at least equal to 3.
# output label 1

# input Quick check, protein stability index >= 3? KRDQYLKSASKETAPVI [RPL28]
# output label 0

# input Could you verify whether the entry DRLSLQDRQQLLPLVVS [ECM29] shows protein stability index of no less than 3?
# output label 0

# input Tell me whether protein stability index is at least 3 here: RQILFKYPMYMQLEEEL [MED6]
# output label 0

# input Decide: protein stability index of NLRTQVTQQKRSLDENR [SMC1] >= 3?
# output label 1

# input Assess whether reported protein stability index for KEILDNILPFLWGPHGL [ECM29] sits at 3 or higher.
# output label 0

# input Please indicate if the recorded protein stability index for SQHGQGNNPSWVNNPKK [YDL088C/ASM4] meets or exceeds 3.
# output label 1

# input Dear colleague, could you confirm whether TSTPPPPPAPHNLHPQI [SNF5] has protein stability index at or above 3?
# output label 1

# input Exam item: decide whether the reported protein stability index for RIGVLQARMMQQQSADH [NSL1] is at least 3.
# output label 0

# input Could you verify whether the entry RHTTGTGRMRYLKHVSR [RPL37A] shows protein stability index of no less than 3?
# output label 1

# input Is the recorded value of protein stability index equal to or greater than 3 for this sequence? NQTRKAHRNGIKKPKTY [RPL29]
# output label 0

# input Given YVLRNVLRIPEEYLDAN [MTW1] , state whether its protein stability index is at least 3.
# output label 0

# input Decide: is the reported value of protein stability index for KSMNKSAINQYNRRQDK [SNF2] equal to or greater than 3?
# output label 0

# input Please tell me: is the sequence LQFRPAPMYILDEVDAA [SMC2] at or over 3 in terms of protein stability index?
# output label 0

# input Could you please find out whether EALNLLKFFLVDENETV [LIN1] has protein stability index that meets 3 or exceeds it?
# output label 0

# input Decide: is the reported value of protein stability index for SYDVENVNSRNQLVEPN [SRB5] equal to or greater than 3?
# output label 1

# input Decide: protein stability index of DHKYVCTFSMEPYHFIS [SRB8] >= 3?
# output label 0

# input Textbook exercise: given the entry ITQDGKFAYKIDKITDG [YMR129W/POM152] , state whether its protein stability index is greater than or equal to 3.
# output label 0

# input Test whether the sequence QWSATWIAMRREKRDRT [PRP8] records protein stability index of 3 or higher.
# output label 0

# input Is protein stability index for RFYELEESLTVLNCLRT [YJR042W/NUP85] at or above 3?
# output label 0

# input // inclusive: protein stability index at least 3? input: KNSSTSNTEPIPRSNRH [MED1]
# output label 1

# input Quick check, protein stability index >= 3? ISAEDRADTDLAMNDDD [SNF2]
# output label 1

# input Evaluate ERAELETDEYISYTSHI [RPN1] : protein stability index at minimum 3?
# output label 1

# input Answer whether protein stability index of FTNPSVDIQIINQYQLL [SWI1] is greater than or equal to 3.
# output label 0

# input Given the entry NVSLIKIEGVATPQDAQ [RPL33A] , answer whether its protein stability index meets or surpasses 3.
# output label 0

# input Check if protein stability index >= 3 (inclusive). Item: RRSLKKQGRIKNATEEL [CSN12]
# output label 1

# input Confirm if protein stability index reported for the sequence QEQLKQMDQQLQYTALT [ARP7] is 3 or above.
# output label 0

# input Determine whether measured protein stability index meets or exceeds 3 for SGLNRAISTGNWSLKRF [RET1]
# output label 0

# input Does VENWIIDDKGVLMERKD [ITC1] have a reported protein stability index of at least 3?
# output label 0

====

For each of the sequences below, state its protein stability index.
# assay comment: protein stability index of a GFP-peptide fusion (yeast GPS) (PSI 1-4); higher = more stable; sorted into four equal gates, so the index is relative within each strain
# reported conditions: ubr1∆
I only need the number, thanks.

# input Find the recorded protein stability index belonging to YNDSATSGEAAALGMGL [RPN2] and report it.
# output 2.43

# input Please look up its protein stability index: FLQRIDFQIDGNIFELL [RRI2]
# output 2.64

# input I'd like to know its protein stability index. The sequence in question is SHNENKMDFSSKEGQYK [YIL149C/MLP2]
# output 3.28

# input For the sequence shown here, FGHIDLAKPVFHVGFIA [RPO21] , give the reported protein stability index.
# output 2.63

# input What value of protein stability index has been recorded for this entry: QYIRTLVSEARTLWPEF [SSN8]
# output 2.42

# input Would you mind telling me what protein stability index value was observed for GEINKICMESLFLEPSW [PCI8] ?
# output 1.99

# input Fill in the blank: the reported protein stability index of SQCRLHELREKERISVA [PRE2] is ____.
# output 1.67

# input Please give the measured protein stability index for this sequence: TKRLGTPESVKPANASH [RGR1]
# output 2.76

# input Look up protein stability index for this sequence: SSTKPPGSVNSAAKYKD [NUT1]
# output 2.93

# input // lookup protein stability index for LTSFAEENNYQYGYSGS [SNF6]
# output 2.48

# input Data request, read-out protein stability index, for AEHSQNKIDQSLQYIER [YJL041W/NSP1]
# output 3.04

# input What value of protein stability index has been recorded for this entry: QQMIITRLKSLLKPFHV [SIR3]
# output 1.99

# input What value of protein stability index has been recorded for this entry: SEDDSESGKVFIGRLPI [RPB2]
# output 3.29

# input Any idea what protein stability index was measured for PREDKENNRLLFECRTC [RPB9] ?
# output 3.29
